- system-under-test: α1d (rat) adrenoceptor (Rattus norvegicus)
- Sequence (P23944 whole entry): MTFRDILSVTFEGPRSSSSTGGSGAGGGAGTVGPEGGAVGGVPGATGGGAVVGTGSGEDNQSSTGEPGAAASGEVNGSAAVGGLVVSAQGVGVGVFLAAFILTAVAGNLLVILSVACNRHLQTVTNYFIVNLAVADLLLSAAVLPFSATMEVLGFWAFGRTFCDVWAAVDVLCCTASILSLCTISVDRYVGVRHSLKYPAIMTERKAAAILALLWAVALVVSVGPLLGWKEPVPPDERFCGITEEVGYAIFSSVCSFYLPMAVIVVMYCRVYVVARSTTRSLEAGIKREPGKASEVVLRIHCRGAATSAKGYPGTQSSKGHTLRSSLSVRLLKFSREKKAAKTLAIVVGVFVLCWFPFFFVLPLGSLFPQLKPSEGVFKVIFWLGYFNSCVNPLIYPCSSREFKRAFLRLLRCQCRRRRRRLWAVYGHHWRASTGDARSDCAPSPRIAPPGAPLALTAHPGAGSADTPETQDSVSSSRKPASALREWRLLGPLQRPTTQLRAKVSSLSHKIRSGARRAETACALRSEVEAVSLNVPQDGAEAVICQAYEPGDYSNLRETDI
measured-metric: Ki (nM)
Value expressed in nM; do not type the unit.

Q: Quick one: Ki of COc1cc2nc(N3CCN(C(=O)C4CCCO4)CC3)nc(N)c2cc1OC (stereo not shown) [terazosin, reference compound] ?
Result: 1.01

###

Overview of recorded IUP (pA2) for various compounds
- Tested on: EPI induced increase in canine IUP
- assay-text: In vivo intraurethral pressure (IUP) in canines, inhibition of EPI induced increase
- Design: species or system Beagle dogs
- condition-set: in vivo pseudo pA2 by Schild analysis; antagonist i.v.; epinephrine; propranolol-treated dogs; * (tamsulosin): add 0.4 if slope adjusted to 1
Lab note: record the figure alone, no unit after it.

Worked cases, answers included:
In [3]: df
Out[3]:
                                   compound                   system_under_test  measured_metric  assay_value
0  COc1ccccc1N1CCN(CCn2c(=O)[nH]c3sc(-c4ccccc4)cc3c2=O)CC1 [Example 5]  EPI induced increase in canine IUP        IUP (pA2)         8.47
1  CCOc1ccccc1OCCN[C@H](C)Cc1ccc(OC)c(S(N)(=O)=O)c1 [tamsulosin, reference compound]  EPI induced increase in canine IUP        IUP (pA2)         8.91
2  COc1ccccc1N1CCN(CCn2c(=O)[nH]c3scc(-c4ccccc4)c3c2=O)CC1 [Example 1]  EPI induced increase in canine IUP        IUP (pA2)         7.95

Please examine the following record next.
Q: Field: IUP (pA2) (EPI induced increase in canine IUP). Entry: COc1cc2nc(N3CCN(C(=O)C4CCCO4)CC3)nc(N)c2cc1OC (stereo not shown) [terazosin, reference compound]
Result: 6.97

###

- system-under-test: α1b (hamster) adrenoceptor (Mesocricetus auratus)
- Construct: expressed in transfected cells; cDNA from TULCO
- Sequence (P18841 1-515): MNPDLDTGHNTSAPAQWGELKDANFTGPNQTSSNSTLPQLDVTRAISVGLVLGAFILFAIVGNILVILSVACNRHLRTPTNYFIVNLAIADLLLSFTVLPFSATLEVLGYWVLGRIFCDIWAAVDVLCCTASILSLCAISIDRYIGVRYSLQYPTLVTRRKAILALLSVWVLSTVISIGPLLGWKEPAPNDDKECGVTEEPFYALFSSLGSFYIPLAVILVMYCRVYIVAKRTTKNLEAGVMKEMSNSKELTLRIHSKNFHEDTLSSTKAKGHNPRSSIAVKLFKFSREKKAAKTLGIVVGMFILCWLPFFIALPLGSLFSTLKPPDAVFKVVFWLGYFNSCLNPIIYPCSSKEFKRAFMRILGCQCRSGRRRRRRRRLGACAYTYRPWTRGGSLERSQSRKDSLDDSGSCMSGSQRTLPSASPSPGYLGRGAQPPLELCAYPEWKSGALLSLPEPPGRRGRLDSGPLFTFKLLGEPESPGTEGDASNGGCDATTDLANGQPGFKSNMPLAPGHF
- assay-text: Radioligand binding cloned α1b adrenoceptor expressed in LTK cells, [3H]-prazosin
- condition-set: LTK cell membranes, [3H]prazosin 0.2 nM
measured-metric: Ki (nM)
Value expressed in nM; do not type the unit.

>>> print(df.to_string())
                                   compound                         system_under_test  scale_unit  assay_value
0  CCOc1ccccc1OCCN[C@H](C)Cc1ccc(OC)c(S(N)(=O)=O)c1 [tamsulosin, reference compound]  α1b (hamster) adrenoceptor (Mesocricetus auratus)          nM        0.204

Please examine the following record next.
Q: Quick one: Ki of COc1ccccc1N1CCN(CCn2c(=O)[nH]c3scc(-c4ccccc4)c3c2=O)CC1 [Example 1] ?
Result: 3.41
